- target: Gal(b1-4)GlcNAc(b1-2)Man(a1-3)[GlcNAc(b1-2)Man(a1-6)]Man(b1-4)GlcNAc(b1-4)GlcNAc
- method: glycan array binding signal (z-score within array); higher = stronger binding
- protocolConditions: glycan notation: IUPAC condensed, linker removed
This excerpt belongs to a sample that is enriched for the strongest signals.
assayEndpoint: glycan array binding signal (z-score)
Just the number, please, no unit after it.

Quick one: glycan array binding signal (z-score) of AT5G01260(PC)(40) (Arabidopsis thaliana), Q9LFB0 (protein) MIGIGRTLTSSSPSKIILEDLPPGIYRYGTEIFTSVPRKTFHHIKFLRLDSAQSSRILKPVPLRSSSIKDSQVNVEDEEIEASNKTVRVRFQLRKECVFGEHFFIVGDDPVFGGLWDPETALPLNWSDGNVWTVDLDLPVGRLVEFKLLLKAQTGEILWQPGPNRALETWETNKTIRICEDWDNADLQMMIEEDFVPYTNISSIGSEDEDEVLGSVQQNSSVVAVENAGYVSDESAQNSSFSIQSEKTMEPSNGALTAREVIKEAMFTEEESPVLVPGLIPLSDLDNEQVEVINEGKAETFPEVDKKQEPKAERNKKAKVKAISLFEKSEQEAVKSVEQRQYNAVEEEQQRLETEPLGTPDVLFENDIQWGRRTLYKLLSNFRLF ?
-0.702
